TEST_NAME: qHTS assay to identify small molecule antagonists of the thyroid receptor (TR) signaling pathway - cell viability counter screen (AID 743064); also: nearly all actives have a fitted effect of over 50% in size
CONDITION_LABEL: GH3.TRE-Luc viability, CellTiter-Fluor, 24 h; series mostly up to 70.3 µM
Description: National Center for Advancing Translational Sciences [NCATS] NIH Chemical Genomics Center [NCGC] U.S. Environmental Protection Agency [EPA] National Institutes of Environmental Health Sciences [NIEHS] National Toxicology Program [NTP] U.S. Food and Drug Administration [FDA] Thyroid receptor (TR), a nuclear hormone receptor, plays an important role in development, proliferation, differentiation, metabolism, brain function, and cardiovascular system. […]
Records with an inconclusive call do not appear. Activity calls are given as the source filed them. Calls follow the shape of the dose curve; as a rule, active = well fitted cell-killing curve with a large enough effect in the repeat runs; inconclusive = weak or mixed curves, or effect the other way; inactive = no such curve, though single readings can be large or run the other way.
Outcome codes: active, inactive

CCCC[N+]1(C)[C@@H]2CC(OC(=O)[C@H](CO)c3ccccc3)C[C@H]1[C@@H]1O[C@@H]12 (some centres undefined); inactive
O=C=NC1CCCCC1; inactive
C[Si](Cn1cncn1)(c1ccc(F)cc1)c1ccc(F)cc1; active
CCC1(C2=NCCN2)Cc2ccccc2O1 (centres undefined); inactive
C[N+](C)(C)CCOC(=O)C(O)(c1ccccc1)c1ccccc1; inactive
CCCCC(CC)COC(=O)c1c(Br)c(Br)c(Br)c(Br)c1C(=O)OCC(CC)CCCC (centres undefined); inactive
Nc1cccc2ccccc12; inactive
NNCCO; inactive
CCCCCCCCP(=O)(O)O; inactive
CCCN(CCOc1c(Cl)cc(Cl)cc1Cl)C(=O)n1ccnc1; active
C[C@]12CC[C@H]3[C@@H](CCC4=CC(=O)CC[C@@H]43)[C@@H]1CC[C@@H]2OC(=O)CCc1ccccc1; inactive
OCCSSCCO; inactive
SCc1ccccc1; inactive
CON(C)C(=O)Nc1ccc(Cl)cc1; inactive
Cc1cccc(C)c1NC1=NCCCS1; inactive
c1ccc2c(c1)-c1cccc3cccc-2c13; inactive
C[C@H](N)[C@H](O)c1ccc(O)c(O)c1; active
O=C([O-])c1ccccn1.O=C([O-])c1ccccn1.O=C([O-])c1ccccn1.[Cr+3]; inactive
CC1(C)CC(=O)CC(C)(C)N1[O]; inactive
